Tested on: FAAH
Assay: serine hydrolase off-target inhibition in mouse brain, late-stage follow-up, selectivity assay for DAGLb inhibitor project, biochemical, gel-based competitive ABPP, mouse brain membrane, set 3 (AID 602321)
Conditions: gel-based competitive ABPP fluorescence, inhibition, at 1 µM, stronger effect = higher value
Quantity Kind: inhibition (%)
Enter your answer as a number in %; do not include the unit.

Requested read-out inhibition, target or system FAAH, entry NC(=O)c1ccc(-c2ccc(-c3cn(C(=O)N4CCCCC4c4ccccc4)nn3)cc2)cc1 (stereo not given)
10

Requested read-out inhibition, target or system FAAH, entry O=C(N1CCCCC1Cc1ccccc1)n1cc(-c2ccc(-c3cccc(CO)c3)cc2)nn1 (stereo not given)
0

Requested read-out inhibition, target or system FAAH, entry O=C(c1ccc(-c2ccc(-c3cn(C(=O)N4CCCCC4Cc4ccccc4)nn3)cc2)cc1)N1CCCCC1 (stereo not given)
0

Requested read-out inhibition, target or system FAAH, entry O=C(O)c1cccc(-c2ccc(-c3cn(C(=O)N4CCCCC4c4ccccc4)nn3)cc2)c1 (stereo not given)
5

Requested read-out inhibition, target or system FAAH, entry O=C(N1CCCCC1c1ccccc1)n1cc(-c2ccc(-c3ccc(CO)cc3)cc2)nn1 (stereo not given)
0
